- target_desc: PDE 5 (cGMP specific PDE) (Homo sapiens, UniProt O76074)
- Construct: from tissue; host or cells: human platelets, DEAE-cellulose fraction
- assay_details: Phosphodiesterase inhibiting effect, PDE 5 separated from human platelets
- Type: biochemical
- run_parameters: isozyme from human platelets; [3H]-cAMP or [3H]-cGMP substrate; read-out: PDE inhibiting activity : IC50(nM) PDE5
reported_property: IC50 (nM)
The answer is to be given in nM; state only the numeric part.

Indicate the recorded IC50 value for this compound: "COc1ccc(CNc2nc(-c3ccncc3)nc3sc(C(=O)NCCO[N+](=O)[O-])c(C)c23)cc1Cl"
0.65

Look up and report measured IC50 for this entry: "COc1ccc(CNc2nc(-c3cccnc3)nc3sc(C(=O)NCCO[N+](=O)[O-])c(C)c23)cc1Cl"
2.8

Determine its reported IC50: "COc1ccc(CNc2nc(-c3cccnc3)nc3sc(-c4ccncc4)c(C)c23)cc1Cl"
3.3

Please give the documented IC50 of "COc1ccc(CNc2nc(-c3cccnc3)nc3sc(C(=O)N4CCN(C=O)CC4)c(C)c23)cc1Cl"
6.1

Look up and report measured IC50 for this entry: "COc1ccc(CNc2nc(-c3ccccn3)nc3sc(C(=O)Nc4nccs4)c(C)c23)cc1Cl"
2.3

Fill in IC50 for record "COc1ccc(CNc2nc(-c3ccncc3)nc3sc(C(=O)N4CCN(C)CC4)c(C)c23)cc1Cl"
0.52

Please give the documented IC50 of "COc1ccc(CNc2nc(-c3cccnc3)nc3sc(C(=O)O)c(C)c23)cc1Cl"
3

Consider the compound "COc1ccc(CNc2nc(C(=O)Nc3ccccc3)nc3sc(-c4ccc(F)cc4)c(C)c23)cc1Cl" . State its measured IC50.
0.43

Note down IC50 recorded for "COc1ccc(CNc2nc(-c3ccccn3)nc3sc(C(=O)Nc4cccnc4)c(C)c23)cc1Cl"
7.2

Supply IC50 value. Item: "COc1ccc(CNc2nc(C(=O)Nc3ccccc3)nc3sc(-c4ccccc4)cc23)cc1Cl"
0.71

Identify measured IC50 corresponding to "COc1ccc(CNc2nc(-c3cccnc3)nc3sc(C(=O)N(C)C)c(C)c23)cc1Cl"
3.7

Report measured IC50; entry is "COc1ccc(CNc2nc(C(=O)Nc3ccccc3)nc3sc(C(=O)Nc4ccccc4)c(C)c23)cc1Cl"
0.27

Item "CCOC(=O)c1sc2nc(-c3ccncc3)nc(NCc3ccc(OC)c(Cl)c3)c2c1C" : provide IC50
3.2

Please supply the value of reported IC50 for the item "COc1ccc(CNc2nc(-c3ccncc3)nc3sc(C(=O)Nc4ccc(N)cc4)c(C)c23)cc1Cl"
0.5

For the compound "COc1ccc(CNc2nc(-c3ccncc3)nc3sc(C(=O)N4CCOCC4)c(C)c23)cc1Cl" , give its measured IC50 value.
0.53

Fill in reported IC50 for this entry: "COc1ccc(CNc2nc(-c3ccncc3)nc3sc(-c4ccccn4)c(C)c23)cc1Cl"
0.68

Fill in IC50 for record "COc1ccc(CNc2nc(C(=O)Nc3ccccc3)nc3scc(C)c23)cc1Cl"
2.5

Answer with reported IC50 of "COc1ccc(CNc2nc(-c3cccnc3)nc3sc(C(=O)Nc4ccccc4)c(C)c23)cc1Cl"
1.5

Quick one: give measured IC50 for "COc1ccc(CNc2nc(-c3ccncc3)nc3sc(C(=O)N(C)C)c(C)c23)cc1Cl"
1.6

Specify IC50 for "CCOC(=O)c1nc(NCc2ccc(OC)c(Cl)c2)c2cc(-c3ccccc3)sc2n1" and stop.
2.9

Return IC50 for the following compound: "COc1ccc(CNc2nc(-c3ccccn3)nc3sc(C(=O)Nc4ccccc4)c(C)c23)cc1Cl"
6.4

Let me know recorded IC50 for "COc1ccc(CNc2nc(-c3ccncc3)nc3sc(C(=O)Nc4ccccc4)c(C)c23)cc1Cl" , thanks.
0.46

Assign IC50 to the following record: "COc1ccc(CNc2nc(-c3ccncc3)nc3sc(C(=O)O)c(C)c23)cc1Cl"
0.74

Give the value of IC50 reported for the following: "COc1ccc(CNc2nc(-c3cccnc3)nc3sc(C(N)=O)c(C)c23)cc1Cl"
2.3

Retrieve IC50 measured for "COc1ccc(CNc2nc(-c3ccncc3)nc3sc(C(=O)Nc4ccc(NC(=O)OC(C)(C)C)cc4)c(C)c23)cc1Cl" and print it.
0.52

Identify measured IC50 associated with "COc1ccc(CNc2nc(C(=O)Nc3ccccc3)nc3sc(-c4cccnc4)c(C)c23)cc1Cl"
0.29
